Test system: SK-BR-3
Test: Inhibition of cells growth by colorimetric assay (SRB)
Conditions: Homo sapiens, SK-BR-3, 48 h, read-out: GI50 SK-BR3
Property Measured: GI50 (nM)
One number for each entry, in nM.

Example results:
Entry C=CCN1[C@@H]2c3c(cc(C)c(OC)c3O)C[C@H]1[C@H](C#N)N1C2[C@@H]2SCC(N)C(=O)OC[C@H]1c1c3c(c(C)c(OC(C)=O)c12)OCO3 (stereo partly drawn) [compound 12] has what GI50? 256

Please report the recorded GI50 for C=CCN1[C@@H]2c3c(cc(C)c(OC)c3O)C[C@H]1[C@H](C#N)N1C2[C@@H]2SC[C@H](NC(=O)c3cc4ccccc4oc3=O)C(=O)OC[C@H]1c1c3c(c(C)c(OC(C)=O)c12)OCO3 (stereo partly drawn) [compound 28] . 47.3

Please report the recorded GI50 for C=CCN1[C@@H]2c3c(cc(C)c(OC)c3O)C[C@H]1[C@H](C#N)N1C2[C@@H]2SCC(NC(=O)CCCCCCCCCCCCCCC)C(=O)OC[C@H]1c1c3c(c(C)c(OC(C)=O)c12)OCO3 (stereo partly drawn) [compound 26] . 4230

Please give the measured GI50 for this compound: CCCCCCCCCCCCCCCC(=O)NC1CS[C@@H]2c3c(OC(C)=O)c(C)c4c(c3[C@H](COC1=O)N1C2[C@@H]2N[C@@H](Cc3cc(C)c(OC)c(O)c32)[C@@H]1C#N)OCO4 (stereo partly drawn) [compound 32] 263

# GI50 lookup, item COc1c(C)cc2c(c1O)[C@H]1N[C@@H](C2)[C@H](C#N)N2C1[C@@H]1SCC(NC(C)=O)C(=O)OC[C@H]2c2c3c(c(C)c(OC(C)=O)c21)OCO3 (stereo partly drawn) [compound 30] 0.527

Entry under review: C=CCOc1c(C)c2c(c3c1CC1[C@H]4c5c(cc(C)c(OC)c5O)C[C@@H]([C@H](C#N)N1[C@H]3CN)N4C)OCO2 (stereo partly drawn) [compound 1] . Reported GI50? 1010

Entry under review: C=CCN1[C@@H]2c3c(cc(C)c(OC)c3O)C[C@H]1[C@H](C#N)N1C2[C@@H]2SCC(NC(=O)C(F)(F)F)C(=O)OC[C@H]1c1c3c(c(C)c(OC(C)=O)c12)OCO3 (stereo partly drawn) [compound 25] . Reported GI50? 555

If you can, please state the reported GI50 value of COc1c(C)cc2c(c1O)[C@H]1N[C@@H](C2)[C@H](C#N)N2C1[C@@H]1SCC(NC(=O)C(F)(F)F)C(=O)OC[C@H]2c2c3c(c(C)c(OC(C)=O)c21)OCO3 (stereo partly drawn) [compound 31] . 0.396

Endpoint output: GI50 of C=CCN1[C@@H]2c3c(cc(C)c(OC)c3OC(=O)/C=C/c3ccccc3)C[C@H]1[C@H](C#N)N1C2[C@@H]2SCC(NC(=O)C(F)(F)F)C(=O)OC[C@H]1c1c3c(c(C)c(OC(C)=O)c12)OCO3 (stereo partly drawn) [compound 29] . Value? 889

Record request: GI50 value, item COC1=C(C)C(=O)C2=C(C1=O)[C@@H]1C3[C@@H]4SC[C@]5(NCCc6c5[nH]c5ccccc65)C(=O)OC[C@@H](c5c6c(c(C)c(OC(C)=O)c54)OCO6)N3[C@@H](C#N)[C@H](C2)N1C (stereo partly drawn) [compound 23] 13.1

Please give GI50, item by item, for the list that follows.
1. C=CCOc1c(C)c2c(c3c1CC1[C@H]4c5c(cc(C)c(OC)c5O)C[C@@H]([C@H](C#N)N1[C@H]3CO)N4C)OCO2 (stereo partly drawn) [compound 2]
2. COc1c(C)cc2c(c1O)[C@@H]1C3[C@@H]4SC[C@]5(NCCc6c5[nH]c5ccccc65)C(=O)OC[C@@H](c5c6c(c(C)c(OC(C)=O)c54)OCO6)N3[C@@H](C#N)[C@H](C2)N1C (stereo partly drawn) [compound 22]

1: 778; 2: 5.77

----------
System: IGROV-ET
Assay: Inhibition of cells growth by colorimetric assay (SRB)
Conditions: Homo sapiens, 48 h, read-out: LC50 IGROV-ET
Method: This form of the assay employs 96 well cell culture microplates of 9 mm diameter (Faircloth, 1988; Mosmann, 1983). Most of the cell lines are obtained from American Type Culture Collection (ATCC) derived from different human cancer types. […] The values for mean +/− SD of data from triplicate wells are calculated. Some parameters for cellular responses can be calculated: GI=growth inhibition, TGI=total growth inhibition (cytostatic effect) and LC=cell killing (cytotoxic effect).
I'd appreciate it if you could label each record using CC50 and these ranges: low = under 2 µM, mid = from 2 µM up to 10 µM, high = 10 µM and over

Sort into band: COc1c(C)cc2c(c1O)[C@@H]1C3[C@@H]4SC[C@]5(NCCc6c5[nH]c5ccccc65)C(=O)OC[C@@H](c5c6c(c(C)c(OC(C)=O)c54)OCO6)N3[C@@H](C#N)[C@H](C2)N1C (stereo partly drawn) low

# classify by CC50 band: COc1c(C)cc2c(c1O)[C@H]1N[C@@H](C2)[C@H](C#N)N2C1[C@@H]1SCC(NC(C)=O)C(=O)OC[C@H]2c2c3c(c(C)c(OC(C)=O)c21)OCO3 (stereo partly drawn) high

For C=CCN1[C@@H]2c3c(cc(C)c(OC)c3O)C[C@H]1[C@H](C#N)N1C2[C@@H]2SCC(NC(=O)C(F)(F)F)C(=O)OC[C@H]1c1c3c(c(C)c(OC(C)=O)c12)OCO3 (stereo partly drawn) , which CC50 bin applies? high

Exam item: assign C=CCN1[C@@H]2c3c(cc(C)c(OC)c3OC(=O)/C=C/c3ccccc3)C[C@H]1[C@H](C#N)N1C2[C@@H]2SCC(NC(=O)C(F)(F)F)C(=O)OC[C@H]1c1c3c(c(C)c(OC(C)=O)c12)OCO3 (stereo partly drawn) to the correct category. high

Could you place COc1c(C)cc2c(c1O)[C@H]1N[C@@H](C2)[C@H](C#N)N2C1[C@@H]1SCC(NC(=O)C(F)(F)F)C(=O)OC[C@H]2c2c3c(c(C)c(OC(C)=O)c21)OCO3 (stereo partly drawn) in its proper category? Many thanks. mid

Sort C=CCN1[C@@H]2c3c(cc(C)c(OC)c3O)C[C@H]1[C@H](C#N)N1C2[C@@H]2SCC(NC(=O)CCCCCCCCCCCCCCC)C(=O)OC[C@H]1c1c3c(c(C)c(OC(C)=O)c12)OCO3 (stereo partly drawn) into one of the categories. high

Lab log: C=CCOc1c(C)c2c(c3c1CC1[C@H]4c5c(cc(C)c(OC)c5O)C[C@@H]([C@H](C#N)N1[C@H]3CO)N4C)OCO2 (stereo partly drawn) — assign CC50 category high

Hi there! Could you help me figure out the category for COC1=C(C)C(=O)C2=C(C1=O)[C@@H]1C3[C@@H]4SC[C@]5(NCCc6c5[nH]c5ccccc65)C(=O)OC[C@@H](c5c6c(c(C)c(OC(C)=O)c54)OCO6)N3[C@@H](C#N)[C@H](C2)N1C (stereo partly drawn) please? low

# classify by CC50 band: CCCCCCCCCCCCCCCC(=O)NC1CS[C@@H]2c3c(OC(C)=O)c(C)c4c(c3[C@H](COC1=O)N1C2[C@@H]2N[C@@H](Cc3cc(C)c(OC)c(O)c32)[C@@H]1C#N)OCO4 (stereo partly drawn) mid

Place this compound in its band: C=CCN1[C@@H]2c3c(cc(C)c(OC)c3O)C[C@H]1[C@H](C#N)N1C2[C@@H]2SC[C@H](NC(=O)c3cc4ccccc4oc3=O)C(=O)OC[C@H]1c1c3c(c(C)c(OC(C)=O)c12)OCO3 (stereo partly drawn) low

---
Which category fits this record: C=CCOc1c(C)c2c(c3c1CC1[C@H]4c5c(cc(C)c(OC)c5O)C[C@@H]([C@H](C#N)N1[C@H]3CN)N4C)OCO2 (stereo partly drawn) high

Using the reported CC50, which band applies to C=CCN1[C@@H]2c3c(cc(C)c(OC)c3O)C[C@H]1[C@H](C#N)N1C2[C@@H]2SCC(N)C(=O)OC[C@H]1c1c3c(c(C)c(OC(C)=O)c12)OCO3 (stereo partly drawn) ? mid

----------
Test system: SK-BR-3
Test: Inhibition of cells growth by colorimetric assay (SRB)
Conditions: Homo sapiens, SK-BR-3, 48 h, read-out: SK-BR3 TGI
Label YES when IC (TGI) is at or above 0.02 µM; anything below gets NO.

# count of solved cases: 5
Does IC (TGI) meet or surpass 0.02 µM for COc1c(C)cc2c(c1OC(=O)/C=C/c1ccccc1)[C@H]1N[C@@H](C2)[C@H](C#N)N2C1[C@@H]1SCC(NC(=O)C(F)(F)F)C(=O)OC[C@H]2c2c3c(c(C)c(OC(C)=O)c21)OCO3 (stereo partly drawn) [compound 34] ? YES

Is it the case that COc1c(C)cc2c(c1O)[C@H]1N[C@@H](C2)[C@H](C#N)N2C1[C@@H]1SC[C@]3(NCCc4c3[nH]c3ccc(O)cc43)C(=O)OC[C@H]2c2c3c(c(C)c(OC(C)=O)c21)OCO3 (stereo partly drawn) [compound 61] has IC (TGI) reaching or exceeding 0.02 µM? NO

Dear colleague, could you confirm whether C=CCN1[C@@H]2c3c(cc(C)c(OC)c3O)C[C@H]1[C@H](C#N)N1C2[C@@H]2SC[C@]3(NCCc4c3[nH]c3ccc(OC)cc43)C(=O)OC[C@H]1c1c3c(c(C)c(OC(C)=O)c12)OCO3 (stereo partly drawn) [compound 56] has IC (TGI) at or above 0.02 µM? NO

Could you verify whether the entry COc1c(C)cc2c(c1O)[C@H]1N[C@@H](C2)[C@H](O)N2C1[C@@H]1SC[C@]3(NCCc4c3[nH]c3ccccc43)C(=O)OC[C@H]2c2c3c(c(C)c(OC(C)=O)c21)OCO3 (stereo partly drawn) [compound 63] shows IC (TGI) of no less than 0.02 µM? NO

Check the entry COC1=C(C)C(=O)C2=C(C1=O)C1C3[C@@H]4SCC(=O)C(=O)OC[C@@H](c5c6c(c(C)c(OC(C)=O)c54)OCO6)N3[C@@H](O)[C@H](C2)N1C (stereo partly drawn) [Et-594-quinone] : does IC (TGI) equal or exceed 0.02 µM? YES

More entries:
For this molecule, is measured IC (TGI) 0.02 µM or higher? COc1cc2c(cc1O)CCN[C@]21CS[C@@H]2c3c(OC(C)=O)c(C)c4c(c3[C@H](COC1=O)N1[C@@H]2[C@H]2c3c(cc(C)c(OC)c3O)C[C@@H]([C@@H]1O)N2C)OCO4 [Et-743, ecteinascidin 743, reference compound] NO

Does C=CCN1[C@@H]2c3c(cc(C)c(OC)c3O)C[C@H]1[C@H](O)N1C2[C@@H]2SC[C@]3(NCCc4cc(O)c(OC)cc43)C(=O)OC[C@H]1c1c3c(c(C)c(OC(C)=O)c12)OCO3 (stereo partly drawn) [compound 67] have a reported IC (TGI) of at least 0.02 µM? YES

State whether the measured IC (TGI) reaches 0.02 µM, counting equality as reaching it, for COc1c(C)cc2c(c1O)[C@H]1N[C@@H](C2)[C@H](O)N2C1[C@@H]1SCC(=O)C(=O)OC[C@H]2c2c3c(c(C)c(OC(C)=O)c21)OCO3 (stereo partly drawn) [compound 43] YES

Quick check, IC (TGI) >= 0.02 µM? COC1=C(C)C(=O)C2=C(C1=O)[C@@H]1C3[C@@H]4SC[C@]5(NCCc6c5[nH]c5ccccc65)C(=O)OC[C@@H](c5c6c(c(C)c(OC(C)=O)c54)OCO6)N3[C@@H](O)[C@H](C2)N1C (stereo partly drawn) [ET-736-quinone] NO
